meta.source: patent US20230235054A1

// reported koff per item
- Measured target: T1, RatNectin4-His (rat, UniProt D3ZET1 31-348)
- T1 construct: Immobilized on the SPR chip; not shown: His tag
- T1 sequence: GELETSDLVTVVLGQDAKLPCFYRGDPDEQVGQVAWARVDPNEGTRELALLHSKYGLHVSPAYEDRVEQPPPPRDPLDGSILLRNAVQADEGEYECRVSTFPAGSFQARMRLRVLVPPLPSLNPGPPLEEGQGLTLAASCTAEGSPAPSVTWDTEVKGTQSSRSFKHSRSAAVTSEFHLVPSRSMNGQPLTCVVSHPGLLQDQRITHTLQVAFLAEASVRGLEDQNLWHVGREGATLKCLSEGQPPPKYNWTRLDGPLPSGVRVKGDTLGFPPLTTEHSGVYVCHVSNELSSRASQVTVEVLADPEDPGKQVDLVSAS
- Measurement description: SPR, RatNectin4-His immobilized, pH 7.4
I only need the number, in s⁻¹, no unit after it.

binder="BAP-143-00-01 (antibody, V domains shown, Used as a conjugate with a linker payload (CAB ADC)) VH: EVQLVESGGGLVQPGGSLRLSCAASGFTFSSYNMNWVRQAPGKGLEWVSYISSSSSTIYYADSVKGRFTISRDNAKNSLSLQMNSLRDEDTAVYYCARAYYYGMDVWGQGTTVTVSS VL: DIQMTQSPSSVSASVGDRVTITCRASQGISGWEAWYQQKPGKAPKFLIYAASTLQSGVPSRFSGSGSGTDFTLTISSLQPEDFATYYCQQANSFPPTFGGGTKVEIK" readout_unit=s⁻¹ observed=0.000875
binder="BAP-143-06-24-16 (antibody, V domains shown, Used as a conjugate with a linker payload (CAB ADC)) VH: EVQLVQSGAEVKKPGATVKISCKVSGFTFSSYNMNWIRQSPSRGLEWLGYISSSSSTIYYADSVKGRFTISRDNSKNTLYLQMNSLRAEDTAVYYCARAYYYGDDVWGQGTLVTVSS VL: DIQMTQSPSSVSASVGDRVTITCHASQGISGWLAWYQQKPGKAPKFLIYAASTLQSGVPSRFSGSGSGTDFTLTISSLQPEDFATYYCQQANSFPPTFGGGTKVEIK" readout_unit=s⁻¹ observed=0.000178
binder="BAP-143-06-33-16 (antibody, V domains shown, Used as a conjugate with a linker payload (CAB ADC)) VH: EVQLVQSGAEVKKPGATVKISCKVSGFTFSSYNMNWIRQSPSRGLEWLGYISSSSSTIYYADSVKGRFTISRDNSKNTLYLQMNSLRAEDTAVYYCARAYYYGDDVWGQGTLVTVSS VL: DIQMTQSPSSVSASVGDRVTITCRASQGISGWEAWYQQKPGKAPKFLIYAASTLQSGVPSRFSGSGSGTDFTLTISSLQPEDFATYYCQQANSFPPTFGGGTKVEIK" readout_unit=s⁻¹ observed=0.000261

Now, please, on to the next binder.
Notebook: BAP-143-07-03-12 (antibody, V domains shown, Used as a conjugate with a linker payload (CAB ADC)) VH: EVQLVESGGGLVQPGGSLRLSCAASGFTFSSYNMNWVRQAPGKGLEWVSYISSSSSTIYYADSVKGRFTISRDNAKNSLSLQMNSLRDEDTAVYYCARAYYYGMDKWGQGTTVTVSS VL: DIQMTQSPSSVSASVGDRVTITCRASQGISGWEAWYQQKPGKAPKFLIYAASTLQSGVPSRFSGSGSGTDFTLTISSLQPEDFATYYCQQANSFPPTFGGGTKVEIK , koff read as 0.000731
